biological target: SHP2 (Homo sapiens, UniProt Q06124); test: SHP2 allosteric inhibition assay (DiFMUP prompt fluorescence); settings: 0.25 nM SHP2 activated with 0.5 μM peptide IRS1_pY1172(dPEG8)pY1222; substrate DiFMUP 100 μM
Structures can show the parent of a compound that is named as a salt.
Measured IC50 accompanies every entry in the list below.

>  <compound>
N[C@H]1c2ccccc2CC12CCN(c1cnc3c(-c4ccnc(Cl)c4F)n[nH]c3n1)CC2 (single isomer, unassigned)

>  <IC50>
50 to 1000 nM

$$$$
>  <compound>
N[C@@H]1c2ccccc2C[C@@]12C[C@H]1CC[C@@H](C2)N1c1cnc2c(N3CCCc4ncccc43)n[nH]c2n1

>  <IC50>
> 10000 nM

$$$$
>  <compound>
CC(C)Sc1cnc(N2CCC3(CC2)Cc2ccccc2[C@H]3N)cn1

>  <IC50>
< 50 nM

$$$$
>  <compound>
N[C@@H]1c2ccccc2CC12CCN(c1ccc(SCC3CC3)nc1)CC2 [Example 272, formate]

>  <IC50>
< 50 nM

$$$$

====

target: SHP2 (Homo sapiens, UniProt Q06124); assay: SHP2 allosteric inhibition assay (DiFMUP prompt fluorescence); details: 0.25 nM SHP2 activated with 0.5 μM peptide IRS1_pY1172(dPEG8)pY1222; substrate DiFMUP 100 μM
pIC50: −log10 of the molar value.

>  <compound>
Nc1nccc(Sc2cnc(N3[C@@H]4CC[C@H]3C[C@]3(Cc5ccccc5[C@H]3N)C4)cn2)c1Cl

>  <pIC50>
< 5.00

$$$$
>  <compound>
NC1c2ccccc2CC12CCC(c1cnc(SCC3CC3)cn1)CC2 (single isomer, unassigned)

>  <pIC50>
6.00 to 7.30

$$$$
>  <compound>
C[C@H](C(=O)N1CCC2(CC1)Cc1ccccc1[C@H]2N)c1ccc(F)cc1 (single isomer, unassigned)

>  <pIC50>
> 7.30

$$$$
>  <compound>
Cn1cnc2c(N3CCC4(CC3)Cc3ccccc3[C@H]4N)nccc21

>  <pIC50>
6.00 to 7.30

$$$$

====

The entries below come with measured IC50 values attached.
Molecular target: SHP2 (Homo sapiens, UniProt Q06124)
Sequence (Q06124 1-593): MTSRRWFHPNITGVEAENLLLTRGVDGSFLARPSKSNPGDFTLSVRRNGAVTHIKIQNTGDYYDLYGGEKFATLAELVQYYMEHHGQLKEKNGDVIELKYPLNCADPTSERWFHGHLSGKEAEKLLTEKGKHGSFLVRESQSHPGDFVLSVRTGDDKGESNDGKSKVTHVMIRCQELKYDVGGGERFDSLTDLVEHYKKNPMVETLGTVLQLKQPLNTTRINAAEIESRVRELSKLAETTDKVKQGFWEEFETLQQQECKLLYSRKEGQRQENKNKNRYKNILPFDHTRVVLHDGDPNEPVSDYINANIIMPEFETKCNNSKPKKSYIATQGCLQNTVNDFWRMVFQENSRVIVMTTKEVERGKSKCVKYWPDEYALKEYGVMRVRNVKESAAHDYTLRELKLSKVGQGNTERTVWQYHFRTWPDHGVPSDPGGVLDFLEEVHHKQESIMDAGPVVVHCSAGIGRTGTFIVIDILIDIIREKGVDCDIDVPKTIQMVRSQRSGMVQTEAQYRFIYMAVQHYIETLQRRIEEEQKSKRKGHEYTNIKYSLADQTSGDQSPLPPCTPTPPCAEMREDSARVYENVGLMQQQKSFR
Assay: SHP2 allosteric inhibition assay (DiFMUP prompt fluorescence)
Assay type: biochemical
Details: 0.25 nM SHP2 activated with 0.5 μM peptide IRS1_pY1172(dPEG8)pY1222; substrate DiFMUP 100 μM

>  <compound>
N[C@@H]1c2ccccc2C[C@]12CC[C@H](c1cnc(Sc3ccnc(Cl)c3Cl)cn1)CC2 (single isomer, unassigned) [Example 275]

>  <IC50>
1000 to 10000 nM

$$$$
>  <compound>
Nc1nccc(Sc2ncc(N3CCC4(CC3)Cc3ccccc3[C@H]4N)cn2)c1Cl [Example 63]

>  <IC50>
50 to 1000 nM

$$$$
>  <compound>
N[C@@H]1c2ccccc2C[C@]12CC[C@@H](c1cnc3c(N4CCCc5ncccc54)n[nH]c3n1)CC2 (single isomer, unassigned) [Example 191]

>  <IC50>
1000 to 10000 nM

$$$$
>  <compound>
Cc1cnc2sc(N3CCC4(CC3)Cc3ccccc3[C@H]4N)nn12 [Example 293]

>  <IC50>
< 50 nM

$$$$
